Molecular target: CDK7/cyclinH/MAT1 trimeric complex (Homo sapiens)
Sequence (P50613 whole entry): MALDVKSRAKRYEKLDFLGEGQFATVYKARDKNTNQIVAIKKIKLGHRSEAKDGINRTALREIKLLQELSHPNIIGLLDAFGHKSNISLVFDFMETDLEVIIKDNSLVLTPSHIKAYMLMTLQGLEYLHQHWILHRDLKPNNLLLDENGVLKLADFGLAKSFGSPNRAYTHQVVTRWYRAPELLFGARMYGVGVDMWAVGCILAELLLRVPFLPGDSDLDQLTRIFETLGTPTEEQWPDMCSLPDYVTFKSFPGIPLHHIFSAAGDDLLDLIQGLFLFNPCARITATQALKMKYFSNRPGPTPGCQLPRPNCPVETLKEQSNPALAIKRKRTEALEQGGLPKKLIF
Sequence (P51946 whole entry partner): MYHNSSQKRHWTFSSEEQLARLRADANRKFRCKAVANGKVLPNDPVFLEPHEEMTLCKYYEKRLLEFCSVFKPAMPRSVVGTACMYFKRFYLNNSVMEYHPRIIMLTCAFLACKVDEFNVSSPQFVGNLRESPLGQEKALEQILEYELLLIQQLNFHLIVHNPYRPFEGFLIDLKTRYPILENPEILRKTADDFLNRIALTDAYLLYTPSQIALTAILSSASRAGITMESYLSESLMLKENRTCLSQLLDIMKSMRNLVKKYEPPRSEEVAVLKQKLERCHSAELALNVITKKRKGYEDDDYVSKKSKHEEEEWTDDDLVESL
Sequence (P51948 whole entry partner): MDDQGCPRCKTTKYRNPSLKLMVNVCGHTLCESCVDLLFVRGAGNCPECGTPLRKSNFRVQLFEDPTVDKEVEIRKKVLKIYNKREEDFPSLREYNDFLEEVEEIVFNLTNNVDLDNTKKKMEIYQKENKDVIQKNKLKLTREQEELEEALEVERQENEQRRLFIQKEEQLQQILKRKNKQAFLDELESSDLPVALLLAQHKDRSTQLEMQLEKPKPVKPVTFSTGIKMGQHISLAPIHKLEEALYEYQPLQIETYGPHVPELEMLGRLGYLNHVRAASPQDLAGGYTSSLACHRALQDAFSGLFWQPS
Test: In vitro CDK7 assay, potency of irreversible covalent inhibitors (kinact/KI), coupled PK/LDH ADP readout at 340 nm
Conditions: read-out: CDK7 (20 nM enz.) (kinact/KI, M^−1*s^−1), 20 nM enzyme
property.name: kinact/KI (M⁻¹ s⁻¹)

P: CC#CC(=O)N1CCC(N2CC(c3cc(C#N)c4c(c3)Nc3nccc(N5CCOCC5)c3[C@@H](C)O4)C2)C1 (mixture of isomers) [Compound 493]
Q: C=CC(=O)N1CC(N2CCC(c3ccc4c(c3)Nc3nccc(-c5cnn(C)c5)c3[C@H](C)O4)CC2)C1 (single isomer, unassigned) [Compound 232]
R: C=CC(=O)N1CC(N2CCC(c3cc4c(c(C)n3)OCc3c(N5CCOCC5)ccnc3N4)CC2)C1 [Compound 173]
Exercise: rank_up(items): orders items by reported kinact/KI in ascending numerical order. Would you mind listing the labels in the order requested?
Solution: Q, P, R
(Q: 11.3 M⁻¹ s⁻¹, P: 397 M⁻¹ s⁻¹, R: 1260 M⁻¹ s⁻¹)
